- Test system: Yersinia pseudotuberculosis YPIII
- Assay explanation: Inhibition of T3S in Yersinia pseudotuberculosis YPIII expressing yopE-luxAB at 50 uM after 3 hrs by luciferase reporter gene assay
Classification field: rule met = inhibition at or over 40%; rule not met = inhibition under 40%.

# Smiles record, Class assignment
measured = [
    ("O=C(CC12CC3CC(CC(C3)C1)C2)N/N=C/c1cc([N+](=O)[O-])cc([N+](=O)[O-])c1O", "rule not met"),
    ("COc1cc(/C=N/NC(=O)c2cccc(C(F)(F)F)c2)c(O)c(OC)c1", "rule met"),
    ("COc1cc(Br)cc(/C=N/NC(=O)Cc2ccccc2)c1O", "rule not met"),
    ("O=C(N/N=C/c1cc(Cl)cc(Cl)c1O)c1ccccc1[N+](=O)[O-]", "rule met"),
    ("COc1ccc(Br)c(C(=O)N/N=C/c2ccc(Cl)cc2O)c1", "rule not met"),
]
